Assayed system: HLA-A*03:01 (Homo sapiens, UniProt P04439)
Test name: Competition-based peptide-HLA class I binding assay
Assay conditions: concentration that inhibits 50% binding of fluorescently-labeled standard peptide […], read-out: In vitro HLA binding affinity (IC50, nM), peptide-HLA binding assay, A*03:01
Ends that are not written are not given here.
Recorded endpoint: IC50 (nM)
Reply with just the number (in nM).

{"columns": ["Sequence record", "IC50 / nM"],
 "data": [
  ["KIGDFGLATEK", 672]
]}

Next:
Prompt line: Write down measured IC50 (HLA-A*03:01 (Homo sapiens, UniProt P04439)) for this sequence. "KIGDFGLATVK"
Response line: 415

###

Assayed system: HLA-A*02:01 (Homo sapiens, UniProt P04439, D140Y/D185E/D98H/E176V/E277Q/G131W/G231S/I119V/I121R/I166T/I218V/L300P/L318F/N151K/N90K/P208A/P217A/Q86G/Q94H/R138H/R169H/T345S)
Test name: Competition-based peptide-HLA class I binding assay
Assay conditions: concentration that inhibits 50% binding of fluorescently-labeled standard peptide […], read-out: In vitro HLA binding affinity (IC50, nM), peptide-HLA binding assay, A*02:01
Method: Competition-based peptide-HLA class I binding assays were performed as previously described ([60]).
Ends that are not written are not given here.
Recorded endpoint: IC50 (nM)
Reply with just the number (in nM).

{"columns": ["Sequence record", "Recorded endpoint", "Reported result"],
 "data": [
  ["KIGDFGLATE [KIGDFGLATE]", "IC50", 86900]
]}

Next:
Prompt line: Let me know recorded IC50 for "KIGDFGLATV" , thanks.
Response line: 40
